Entries and their pKd
Target: T1, UAP56 (Arabidopsis thaliana, UniProt Q56XG6 1-427)
T1 sequence: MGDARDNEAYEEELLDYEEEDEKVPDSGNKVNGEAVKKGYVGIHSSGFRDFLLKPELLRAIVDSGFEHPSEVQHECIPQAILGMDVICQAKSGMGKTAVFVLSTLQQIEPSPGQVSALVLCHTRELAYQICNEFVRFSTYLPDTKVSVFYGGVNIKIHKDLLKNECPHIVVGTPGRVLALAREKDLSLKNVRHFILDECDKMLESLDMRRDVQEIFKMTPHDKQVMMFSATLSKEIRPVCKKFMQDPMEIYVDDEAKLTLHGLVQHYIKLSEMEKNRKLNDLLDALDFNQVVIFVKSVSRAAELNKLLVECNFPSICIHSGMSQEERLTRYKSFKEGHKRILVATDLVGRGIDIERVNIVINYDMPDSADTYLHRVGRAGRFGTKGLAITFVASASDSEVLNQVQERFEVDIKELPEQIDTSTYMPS
Assay: MST; MST: 50 nM labelled oligonucleotide in EMSA buffer (composition cited, ref 44), 28 C, Hill fit; EMSA: 32P probe, PAGE, same cited protocol; salt and pH not given
Details: protein: recombinant; tags: 6xHis (pQE9); label: fluorescent; blunt
Keep in mind that pKd stands for -log10 of concentration in molar terms.

| binder | measured.result |
| --- | --- |
| D29ds (dsDNA) DNA 1: CCTCCTTTTTTCTTTTTTTTTTTTTTTCT DNA 2: AGAAAAAAAAAAAAAAAGAAAAAAGGAGG | 5.19 |

I'd like to know its pKd. The binder in question is R29ds (dsRNA) RNA 1: CCUCCUUUUUUCUUUUUUUUUUUUUUUCU RNA 2: AGAAAAAAAAAAAAAAAGAAAAAAGGAGG
4.29
